cell viability overview
Tested on: SEM cells
test-details: cell viability relative to DMSO control; higher = less cytotoxic
run-parameters: RPMI 5 mM glucose + 10% FBS; 48 h; 0.0632 µM
Note: unit % is implicit; provide only the numeric part.

Consider the reported cell viability for these compounds:
item-smiles: CCc1cc2c(cc1N1CCC(N3CCOCC3)CC1)C(C)(C)c1[nH]c3cc(C#N)ccc3c1C2=O
unit-abbreviation: %
cell viability: 107

item-smiles: COc1ccc(C(=O)c2c(C)n(CCN3CCOCC3)c3ccccc23)cc1
unit-abbreviation: %
cell viability: 91.5

item-smiles: C[C@@H]1CN(Cc2ccc(F)cc2)[C@@H](C)CN1C(=O)c1cc2c(C(=O)C(=O)N(C)C)cn(C)c2cc1Cl
unit-abbreviation: %
cell viability: 101

Challenge: Identify measured cell viability obtained with SEM cells for CCOC(=O)N1c2ccc(C(F)(F)F)cc2[C@@H](N(Cc2cc(C(F)(F)F)cc(C(F)(F)F)c2)C(=O)OC)C[C@H]1CC .
Response given: 116

----------
Tested on: NOMO1
test-details: cell viability relative to DMSO control; higher = less cytotoxic
run-parameters: HPLM + 10% dialyzed FBS; 48 h; 0.00234 µM
experimental-endpoint: cell viability (%)
Note: unit % is implicit; provide only the numeric part.

Consider the reported cell viability for these compounds:
compound: C=C1C(=O)OC(CCCCCCCC)C1C(=O)O (stereo not drawn)
experimental-endpoint: cell viability
reading: 125

compound: CC(C)=CCC/C(C)=C/CC/C(C)=C/CC/C(C)=C/CC/C(C)=C/CC/C(C)=C/CC/C(C)=C/CC/C(C)=C/CC/C(C)=C/CO
experimental-endpoint: cell viability
reading: 123

Now consider the entry below.
Challenge: Find the measured cell viability of NC[C@@H]1O[C@H](O[C@H]2[C@@H](O)[C@H](O[C@@H]3[C@@H](O)[C@H](N)C[C@H](N)[C@H]3O[C@H]3O[C@H](CN)[C@@H](O)[C@H](O)[C@H]3N)O[C@@H]2CO)[C@H](N)[C@@H](O)[C@@H]1O.O=S(=O)(O)O.O=S(=O)(O)O.O=S(=O)(O)O and report it.
Response given: 82.8

----------
System: NOMO1
test-details: cell viability relative to DMSO control; higher = less cytotoxic
run-parameters: RPMI 5 mM glucose + 10% FBS; 48 h; 15.4 µM
experimental-endpoint: cell viability (%)
Note: unit % is implicit; provide only the numeric part.

molecule: CCOC(=O)C(C#N)C\1C2=CC(=CC=C2O\C(=C1C(=O)OCC)N)Br (centres undefined)
experimental-endpoint: cell viability
reading: 83.7

Challenge: Find the measured cell viability of CCN(CCO)CCCOc1ccc2c(Nc3cc(CC(=O)Nc4cccc(F)c4)[nH]n3)ncnc2c1 and report it.
Response given: 54.1

Challenge: Find the measured cell viability of C[C@@H]1CCN(C(=O)CC#N)C[C@@H]1N(C)c1ncnc2[nH]ccc12 and report it.
Response given: 80.9

Challenge: Find the measured cell viability of NC(=O)[C@H]1CCS[C@@H]2C[C@]3(CCCN3C(=O)Cc3ccc(NC(=O)COc4ccc(Cl)cc4Cl)cc3)C(=O)N12 and report it.
Response given: 26.6

Challenge: Find the measured cell viability of C[C@H](CCC(=O)O)[C@H]1CCC2C3C[C@H](O)[C@@H]4C[C@H](O)CC[C@]4(C)C3CC[C@@]21C (some centres undefined) and report it.
Response given: 108

Challenge: Find the measured cell viability of N\C1=N\C2=C(N=C[N]2COCCO)C(=O)N1 and report it.
Response given: 97.4

Challenge: Find the measured cell viability of C/C(=N\NC(=S)N1CCC1)c1ccccn1 and report it.
Response given: 13.7

Challenge: Find the measured cell viability of N#Cc1ccc(Oc2ccc3c(c2)COB3O)cc1 and report it.
Response given: 129

Challenge: Find the measured cell viability of C[N]1C=C(C2=CC=CC=C12)\C3=C(\C(=O)NC3=O)C4=C[N](C5CCN(CC5)CC6=NC=CC=C6)C7=C4C=CC=C7 and report it.
Response given: 129

----------
Test system: P12-Ichikawa
test-details: cell viability relative to DMSO control; higher = less cytotoxic
run-parameters: HPLM + 10% dialyzed FBS; 48 h; 0.00234 µM
cell viability overview
Note: unit % is implicit; provide only the numeric part.

molecule: CC(NC(C)(C)C)C(=O)c1cccc(Cl)c1 (configuration not stated)
reading: 113

molecule: COc1ccc(OC)c(-c2nnc3ccc(-c4ccc(OC)c(O[C@@H]5CCOC5)c4)nn23)c1
reading: 118

molecule: CCN1\C=C(\C(O)=O)C(=O)C2=C1N=C(N3CCNCC3)C(=C2)F
reading: 89.2

Challenge: Find the measured cell viability of Cc1ccc(C(=O)Nc2cccc(C(F)(F)F)c2)cc1-c1ccc2nc(NCCN3CCOCC3)ncc2c1 and report it.
Response given: 111

Challenge: Find the measured cell viability of c1ccc2c(Cc3c[nH]c4ccccc34)c[nH]c2c1 and report it.
Response given: 101

----------
Test system: NOMO1
test-details: cell viability relative to DMSO control; higher = less cytotoxic
run-parameters: HPLM + 10% dialyzed FBS; 48 h; 46.1 µM
experimental-endpoint: cell viability (%)
Note: unit % is implicit; provide only the numeric part.

Consider the reported cell viability for these molecules:
molecule: COC(=O)Nc1nc2cc(C(=O)c3ccc(F)cc3)ccc2[nH]1
cell viability / %: 40.3

molecule: N[C@H]2CN(CC12CC1)c3c(F)cc4c(c3Cl)[N@@](C=C(C4=O)C(=O)O)C5C[C@H]5F (stereo partly specified)
cell viability / %: 92.1

molecule: Cc1cn([C@H]2C=C[C@@H](CO)O2)c(=O)[nH]c1=O
cell viability / %: 107

molecule: N\C1=N\C2=C(N=C[N]2COCCO)C(=O)N1
cell viability / %: 73.4

Now consider the entry below.
Challenge: Find the measured cell viability of CC(C)(S)[C@@H](N)C(=O)O and report it.
Response given: 80.6

----------
AUC of viability dose-response curve overview
Test system: P12-Ichikawa
test-details: AUC of viability dose-response curve (% viability x log10 dose units); higher = less sensitive
run-parameters: HPLM + 10% dialyzed FBS; 48 h
Reply with the value as a number alone.

Challenge: Identify measured AUC of viability dose-response curve obtained with P12-Ichikawa for O=C(CC12CC3CC(CC(C3)C1)C2)Nc1cccc2nc(NCCNCCO)ccc12 .
Response given: 424

Challenge: Identify measured AUC of viability dose-response curve obtained with P12-Ichikawa for OC1=CC2=C(C=C1)C(=O)\C(=C(O2)\C3=CC(=C(O)C=C3)O)O .
Response given: 430

Challenge: Identify measured AUC of viability dose-response curve obtained with P12-Ichikawa for Cc1cc(OCCC[S+](C)(=O)[O-])cc(C)c1-c1cccc(COc2ccc3c(c2)OC[C@H]3CC(=O)O)c1 .
Response given: 460

Challenge: Identify measured AUC of viability dose-response curve obtained with P12-Ichikawa for OC[C@H]1O[C@H](C[C@@H]1O)N2\C=C(F)/C(=O)NC2=O .
Response given: 244

Challenge: Identify measured AUC of viability dose-response curve obtained with P12-Ichikawa for COc1cc(CCc2cc(NC(=O)c3ccc(N4C[C@@H](C)N[C@@H](C)C4)cc3)n[nH]2)cc(OC)c1 .
Response given: 448

Challenge: Identify measured AUC of viability dose-response curve obtained with P12-Ichikawa for Cl.Cl.Clc1ccc(Nc2nnc(Cc3ccncc3)c3ccccc23)cc1 .
Response given: 442

Challenge: Identify measured AUC of viability dose-response curve obtained with P12-Ichikawa for Cc1cc(O)c2c(c1)C(=O)c1cccc(O)c1C2=O .
Response given: 465

Challenge: Identify measured AUC of viability dose-response curve obtained with P12-Ichikawa for CN(C)Cc1c(C(=O)NCCOc2ccc(C(=O)NO)cc2)oc2ccccc12 .
Response given: 347

Challenge: Identify measured AUC of viability dose-response curve obtained with P12-Ichikawa for CC[S+](=O)([O-])Nc1ccc2c(c1)/C(=C(/Nc1ccc(CN3CCCCC3)cc1)c1ccccc1)C(=O)N2 .
Response given: 276

----------
cell viability overview
System: NOMO1
test-details: cell viability relative to DMSO control; higher = less cytotoxic
run-parameters: RPMI 5 mM glucose + 10% dialyzed FBS; 48 h; 0.000781 µM
Note: unit % is implicit; provide only the numeric part.

Consider the reported cell viability for these compounds:
compound: C[C@H](CCC(=O)O)[C@H]1CCC2C3C[C@H](O)[C@@H]4C[C@H](O)CC[C@]4(C)C3CC[C@@]21C (stereo partly drawn)
unit-abbreviation: %
cell viability: 102
--
compound: CCN1\C=C(\C(O)=O)C(=O)C2=C1N=C(N3CCNCC3)C(=C2)F
unit-abbreviation: %
cell viability: 55.2
--
compound: Cc1ccc(C(=O)Nc2cccc(C(F)(F)F)c2)cc1-c1ccc2nc(NCCN3CCOCC3)ncc2c1
unit-abbreviation: %
cell viability: 129
--
compound: CC1=C(/C=C/C(C)=C/C=C/C(C)=C\C(=O)O)C(C)(C)CCC1
unit-abbreviation: %
cell viability: 82
--
compound: CCC[S+](=O)([O-])Nc1ccc(F)c(C(=O)c2c[nH]c3ncc(Cl)cc23)c1F
unit-abbreviation: %
cell viability: 116

Challenge: Find the measured cell viability of O=C(CC12CC3CC(CC(C3)C1)C2)Nc1cccc2nc(NCCNCCO)ccc12 and report it.
Response given: 73.5

Challenge: Find the measured cell viability of CCOC(=O)[C@@]1(CCCCCCOc2ccc(Cl)cc2)CO1 and report it.
Response given: 117

Challenge: Find the measured cell viability of CCc1cc(C(N)=S)ccn1 and report it.
Response given: 126

Challenge: Find the measured cell viability of CC(C)(S)[C@@H](N)C(=O)O and report it.
Response given: 97.5

Challenge: Find the measured cell viability of CCOC(=O)N1c2ccc(C(F)(F)F)cc2[C@@H](N(Cc2cc(C(F)(F)F)cc(C(F)(F)F)c2)C(=O)OC)C[C@H]1CC and report it.
Response given: 110

Challenge: Find the measured cell viability of OC1=CC2=C(C=C1)C(=O)\C(=C(O2)\C3=CC(=C(O)C=C3)O)O and report it.
Response given: 96.5

Challenge: Find the measured cell viability of CN1CCN(c2c(F)cc3c(=O)c(C(=O)O)cn(CCF)c3c2F)CC1 and report it.
Response given: 93.3

All figures here come from the supplement of paper PMC11451515.
